meta.source: PubChem BioAssay (EPA / NIEHS)

biological target: Cellular tumor antigen p53 (Homo sapiens) (UniProt P04637); experiment: TOX21_p53_BLA_p2_ratio: Tox21 HCT-116 p53 Agonism Beta-lactamase Assay, Ratio, Phase 2 (AID 2283592)
Sequence (P04637 whole entry, looked up): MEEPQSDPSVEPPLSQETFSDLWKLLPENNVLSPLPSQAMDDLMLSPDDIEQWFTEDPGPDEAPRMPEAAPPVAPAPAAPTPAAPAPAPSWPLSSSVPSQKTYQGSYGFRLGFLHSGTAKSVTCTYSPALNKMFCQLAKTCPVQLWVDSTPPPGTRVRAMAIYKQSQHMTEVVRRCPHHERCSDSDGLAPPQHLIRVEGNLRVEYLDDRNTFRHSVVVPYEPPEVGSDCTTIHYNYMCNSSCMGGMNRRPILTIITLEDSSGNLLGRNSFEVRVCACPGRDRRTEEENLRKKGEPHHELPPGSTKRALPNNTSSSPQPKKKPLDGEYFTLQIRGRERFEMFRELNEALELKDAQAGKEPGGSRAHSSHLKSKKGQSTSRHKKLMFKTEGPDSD
Records with an inconclusive call do not appear. The source made the active and inactive calls. How the source made its calls: active means hit-call score of the fitted dose curve at least 0.9, where 1 is the maximum; inconclusive means response in the unintended direction; inactive means score below 0.9.
Hi there, use one of these labels in your reply, thanks! 1.0 (active), 0.0 (inactive)

Cc1cc(S(=O)(=O)O)c(N)cc1Cl	0.0
CCS(=O)(=O)CCn1c([N+](=O)[O-])cnc1C	0.0
CC(C)(C)C(=O)C(=O)O	0.0

Lookup: Hey, what did the test say about O=C1N=C(O)CN1N=Cc1ccc(-c2ccc([N+](=O)[O-])cc2)o1 ?
Found: 0.0
